System: SF-295 CNS
Experiment: NCI tumour cell line growth inhibition, 48 h
The entries below are paired with their reported TGI.
property_name: TGI (µM)

1. CCCCCCCC/C=C/CCCCCCCC(=O)N(O)C1CC(n2cc(C)c(=O)[nH]c2=O)OC1CO (configuration not stated) ... 21.4
2. CCCCCCCCn1ccc2cc(NC(=O)Cn3cc(CN4CCN(CC)CC4)nn3)ccc21 ... 3.7
3. C#CCNCCCN1C(=O)c2ccc3c4c(ccc(c24)C1=O)C(=O)N(CCCNCC#C)C3=O ... 0.514
4. N=C(N)c1ccc(-c2ccc(-c3ccccc3)s2)s1 ... 0.273
5. COc1ccc(-c2csc(=[N+]3CCCCC3)s2)cc1 ... 8.73
6. COc1ccc2nc3c(n2c1)C(=O)C(=O)c1ccccc1-3 ... 3.03
7. COc1cc(-c2cc(-c3nc4ccc(F)cc4[nH]3)[nH]n2)cc(OC)c1OC ... 9.67
8. CCC1c2[nH]c3ccccc3c2C[C@H]2C(=O)NC(Cc3c[nH]c4ccccc34)C(=O)N12 (some centres not stated) ... 35
